Test system: GR complex
testMethodNotes: modulation of [35S]TBPS binding in rat cerebral cortex P2 homogenate
Design: species or system Sprague-Dawley rats; unit not given here
conditionParameters: maximum inhibition of [35S]TBPS binding; I* = Inactive
Protocol: We performed several experiments to determine the nature of the modulation of [^35S]TBPS as affected by the compounds of the invention. These procedures were performed as follows: Brains from male Sprague-Dawley rats were removed immediately following sacrifice and the cerebral cortices dissected over ice. […] Briefly, the cortices were gently homogenized in 0.32 M sucrose followed by centrifugation at 1000 x g for 10 minutes. The supernatant was collected and centrifuged at 9000 x g for 20 minutes. […]
measurementKind: IMAX

Consider the worked cases shown below.
| molecule | IMAX |
| --- | --- |
| C=C[C@@]1(O)CC[C@@]2(C)[C@@H](CC[C@@H]3[C@@H]2CC[C@]2(C)[C@@H](C(C)=O)CC[C@@H]32)C1 [3β-ethenyl-3α-hydroxy-5α-pregnan-20-one, 3β-Ethenyl-3α-hydroxy-5α-pregnan-20-one] | 88 |
| C[C@]12CC[C@@H](O)C[C@@H]1CC[C@@H]1[C@@H]2CC[C@]2(C)[C@@H](C(=O)COC(=O)CCC(=O)O)CC[C@@H]12 | 91 |
| CC(=O)[C@H]1CC[C@H]2[C@@H]3CC[C@H]4C[C@](C)(O)CC[C@]4(C)[C@H]3CC[C@]12C [3α-hydroxy-3β-methyl-5α-pregnan-20-one] | 97 |

**Query** # IMAX lookup, item C#C[C@@]1(O)CC[C@@]2(C)[C@H](CC[C@@H]3[C@@H]2CC[C@]2(C)[C@@H](C(=O)COC(=O)CCC(=O)O)CC[C@@H]32)C1 [3α,21-dihydroxy-3β-ethynyl-5β-pregnan-20-one 21 hemisuccinat]
**Result** 82

**Query** # IMAX lookup, item CC(O)C1CCC2C3CCC4CC(C)(O)CCC4(C)C3CCC12C (stereo not drawn) [3α,20β-dihydroxy-3β-methyl-5β-pregnane]
**Result** 105

**Query** # IMAX lookup, item CC(=O)[C@H]1CC[C@H]2[C@@H]3CC[C@H]4C[C@](C)(O)CC[C@]4(C)[C@H]3C(=O)C[C@]12C
**Result** 100

**Query** # IMAX lookup, item CCC(=O)[C@H]1CC[C@H]2[C@@H]3CC[C@@H]4C[C@H](O)CC[C@]4(C)[C@H]3CC[C@]12C [3α-hydroxy-21-methyl-5β-pregnan-20-one]
**Result** 100

**Query** # IMAX lookup, item CC12CCC(O)(C(F)(F)F)CC1CCC1C2CCC2(C)C(C(=O)COC(=O)C=CC(=O)[O-])CCC12.[Na+] (stereo not drawn)
**Result** 102

**Query** # IMAX lookup, item C[C@]12CC[C@](O)(C(F)(F)F)C[C@H]1CC[C@@H]1[C@@H]2CC[C@]2(C)[C@@H](C(=O)COC(=O)CCC(=O)O)CC[C@@H]12
**Result** 101

**Query** # IMAX lookup, item CC(=O)OCC(=O)[C@H]1CC[C@H]2[C@@H]3CC[C@@H]4C[C@@](O)(C(F)(F)F)CC[C@]4(C)[C@H]3CC[C@]12C
**Result** 88

**Query** # IMAX lookup, item C[C@H](O)[C@H]1CC[C@H]2[C@@H]3CC[C@H]4C[C@H](O)CC[C@]4(C)[C@H]3CC[C@]12C [3α,20a(S)-dihydroxy-5α-pregnane, 3α,20α(S)-Dihydroxy-5α-pregnane]
**Result** 46

**Query** # IMAX lookup, item CC(=O)[C@H]1CC[C@H]2[C@@H]3CC[C@@H]4C[C@@](O)(C(F)(F)F)CC[C@]4(C)[C@H]3CC[C@]12C
**Result** 98

Data origin, for the record: patent EP0808325B1
